- Tested on: MS2 coat protein
- Test Name: apparent KD of MS2 coat protein; designed switch direction (-1 OFF switch, 1 ON switch): -1; higher = weaker reporter binding
- Test Conditions: input ligand: FMN 200 uM
Would you mind classing the entries by apparent KD of MS2 coat protein? Ranges: A (below 40 nM), B (40 nM to below 100 nM), C (100 nM or more)

1) CCACCUCACGUCAGGAUAUCCAUCUCGAGUGAGGAGGAGAAGGGACAUGAGGAUCACCCAUGUAUAGAAAGAAA [Veaonce] (Eterna round: R97, puzzle: Brourd's mod of Exclusion 4) : A
2) GCCGUUAAGGUAGGAUAUGCUCGGUCUGUGCGUGCAGAAGGGCUGGUCGGCGACUUGAGGAUCACCCAAGUGGUCUUAUAGAAA [Mutated MS2 EX1.21] (Eterna round: R96, puzzle: Exclusion NG 1) : C
3) CUUUAACAAGCGAGAUCCAACAUGAGGAUCACCCAUGUGCAUCCACGAUUAGUGGGUGCGAAAGCUCGUCUUAUAUG [v1] (Eterna round: R97, puzzle: Sensor, turn-off variant 1) : A
4) UUGUUAUAUGAAGGAUAUACUUAACAUGAGGAUCACCCAUGUGGUGUUGUGAGUGAGUGAGUUUAGUAGAAGGUCAAUGAUUUU [JMF's solution 73] (Eterna round: R96, puzzle: Exclusion NG 2) : C
5) GAUCCACAUGAGGAUCACCCAUGUGAGGAUAUGAUACUAUGUACUUCGGUACAUAGUAUCAGAAGGCACAGGUC [Ex1-3: 56] (Eterna round: R96, puzzle: Exclusion 1) : C
6) UAUUGCAAGUGAGGAUAUGACAUGAGGAUCACCCAUGUAAAGGGAGUUGGCUAUAUAGCAAGAUUUCAGAAGGCACUACUGUAU [JR_ExcNG2_Sub006] (Eterna round: R96, puzzle: Exclusion NG 2) : C
7) UAUUAGCAAGUGAGAUCCCACAUGAGGAUCACCCAUGUGCUCGUCUUAUAAGGUACUGUGACGAGAGUCACGGUACC [Mat - Sensor, turn-off var - Eli Mod - D2] (Eterna round: R97, puzzle: Sensor, turn-off variant 1) : B
8) GCGCACCUACCAAAAGGUAGGCUAACAUGAGGAUCACCCAUGUAGGAUAUCGAUUGCUUUGCAGUCGAGAAGGACAUGAUGCGC [JL ENG3 3.80 Mod 11] (Eterna round: R96, puzzle: Exclusion NG 3) : B

====

Each item that follows carries a reported apparent KD of K4 kissing-loop reporter.
- Tested on: K4 kissing-loop RNA reporter;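 also: bound reporter read as fluorescence of individual clusters on recovered sequencing chips by microscopy, with normalized cluster intensities fitted with a binding model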
- Test Name: apparent KD of K4 kissing-loop reporter; higher = weaker reporter binding
- Test Conditions: Eterna round: R107; input ligand: tryptophan 2.4 mM
Measured Quantity: apparent KD of K4 kissing-loop reporter (nM)

1. GGUCGAGUGAUGUUCGAUGUAGUGCAUUCAGAGGAUAUAGGAUGGGCUAGAAGGCUGAAAGGUGCUUCGAGUGAUGUUCGAGGAU [Exclusion FMN A GF 3] : 89
2. CGCAGUGAUGUUGCGAGUAGCUACAGGGAAGGAGCGUGCUAGAGCACAGGUAGGUCGCCCACGCAGUGAUGUUGUGUUAAAGGGU [Exclusion Arginine A GF 12] : 117
3. UGGGCUGCCUGAGGAUAUAGAGACGAGUGAUGUUCGUGGAUAAGAGCCAGUGAUGUUGGGUUAUUUCUAGAAGGCGGGCGAACUU [Exclusion FMN B GF8] : 115

====

- System: MS2 coat protein
- Test Name: apparent KD of MS2 coat protein; designed switch direction (-1 OFF switch, 1 ON switch): 1; higher = weaker reporter binding
- Test Conditions: input ligand: microRNA oligo, concentration not stated
Measured Quantity: apparent KD of MS2 coat protein

1. GAGUGGUGGAGAGGAUAUACAUUGUUAUUCACUGUAGAAGGUUCUAACAUGAGGAUCACCCAUGUAGGACUAUUCCUGAGUUUU [Parity 56 - Jieux - Same State NG 1] (Eterna round: R96, puzzle: Same State NG 1) : 8.92 nM
2. GAGUGGAGGUAAGGAUAUACAAUGAUAAUCACAGUAGAAGGUACUAACAUGAGGAUCACCCAUGUAGGACUAUACCAGAGAGGG [Parity 39 - Jieux - Same State NG 1] (Eterna round: R96, puzzle: Same State NG 1) : 13 nM
3. AUUAAUAAUCGAGGAUAUCACGUCGAUUAGACGUGAGAAGGCGAUCAUAACAUGAGGAUCACCCAUGUAUUACAUGAAGUUAAU [SSNG1/4-B2] (Eterna round: R96, puzzle: Same State NG 1) : 23.7 nM
4. AAAGUGCCGACGAAGGAUAUAGCGGGUGAGACAUGAGGAUCACCCAUGUAUGCAGAACUCAUCCUCUAGAAGGUUGAGACGGCUA [Bionlateat] (Eterna round: R96, puzzle: Same State 2) : 31.1 nM
5. GGUGGGUUACUACCCACACAUGAGGAUCACCCAUGUAUUGGGAAGGAUAUGGUGCCUAUUUGGUACCAGAAGGUCCUGAAGGUG [SS-NG3-LRO17] (Eterna round: R96, puzzle: Same State NG 3) : 571 nM
6. GCCAACUCAUGAGGAUAUGGCACCUUAUUGGUGCCAGAAGGCAUGUCUAUUGACAUGAGGAUCACCCAUGUAUUAUAGUUGGCA [Fiskers NG1ss - 23] (Eterna round: R96, puzzle: Same State NG 1) : 192 nM
7. AGAUCAUGACGAGGAUAUGGUACAUGAGGAUCACCCAUGUAUGUACCACGACGCGUACGUCGAAUCCAGAAGGCGUCAUGAUCA [Mat - Same State NG 2 - JL mod - D18] (Eterna round: R96, puzzle: Same State NG 2) : 92.8 nM
8. UUACUCAUGUAAGGAUAUGCAGCCGAAACGGCUGCAGAAGGUACUAUAAUACAUGAGGAUCACCCAUGUAAAAUAAAUAAAGUU [Mat - Same State NG 1 - JL mod - D97] (Eterna round: R96, puzzle: Same State NG 1) : 32 nM
9. CGGCGCUGUCGAGAGGAUAUGCGGUGACGGACAUGAGGAUCACCCAUGUUAGCGAUAGCGUUACGGUAGAAGGCUCUACAGUCGC [Soteed Omei mod 10] (Eterna round: R96, puzzle: Same State 2) : 125 nM

====

Each item that follows carries a reported apparent KD of MS2 coat protein.
- Tested on: MS2 coat protein
- Test Name: apparent KD of MS2 coat protein; designed switch direction (-1 OFF switch, 1 ON switch): 1; higher = weaker reporter binding
- Test Conditions: Eterna round: R98; input ligand: FMN 200 uM
Measured Quantity: apparent KD of MS2 coat protein

1. UCCGCUAUCGCAGGAUAUUACAUGGGAAAGAGUACAUGAGGAUCACCCAUGUAAAAGAUCAUAAAUAAGAAGGGCGAUAGCGGA [Lame State 9 - Jieux - Same State NG 2] : 214 nM
2. AAUAGUGGCGUAGGAUAUCUGCGUACAUGAGGAUCACCCAUGUCUCCCAGCUGCUGAGCUGGGACAGAGAAGGGCGACCGCAUA [Digece] : 76.4 nM
3. CAGGCUGCCAGAGGAUAAUGGACAUGAGGAUCACCCAUGUGUCAGGAUAUGGGUUUCACAUGGACUCAGAAGGGACCAGCUCGA [Raraator] : 33.8 nM
4. AGUUACAAACUCAACAUGAGGAUCACCCAUGUACUCUCAUGUAAGGAUAUACAUUCGUAUAGAAAGUAGAAGGUACUAAUUAUG [JR_SSNG3_Sub90] : 485 nM
5. AUUAACGGAGCUACAUGAGGAUCACCCAUGUACGGGUGAUCCUAGGAUAUGCCCGCAACUGUGUCGCAGAAGGAGGGUUGCCCA [Soterixe] : 37.6 nM
6. UAAUUAUGGUGAGGAUAUGCACAGGAUCACCGUGUAGAAGGCAUCAGGUAGAAGGUGCAGAGGAUCACCCUGUAAGGAUAUAUC [pwkr2 ssNG1 DX.18] : 102 nM
7. CGUUGUUCCGCAGGAUAUGUAUUGGAUUACAAUACAGAAGGGCGAUAACAUGAGGAUCACCCAUGUGUGGACAAUGAGGAAGAG [SameState #38 NG1] : 54.9 nM
8. AAUAAUCAGGUAGGAUAUGCUCAGGAUAACUGAGCAGAAGGACUAGAAACCUGAGGAUCACCCAGGUAACUGGAAUAAUAAUAA [Same State NG1 - A3C, U17G Submission 6B] : 57.4 nM
9. ACCAAUGGGUGAGGAUAUGCACAGGAUCACCGUGUAGAAGGCAUCAGGUAGAAGGUGCAGAGGAUCACCCUGUAAGGAUAUAUC [pwkr2 ssNG1 DX.14] : 885 nM
10. AUGGGUUAAGGAGGAUAUAGAGGGAGGAGUAAACAUGAGGAUCACCCAUGUAUUUAAUUAGUUUACUAGAAGGCUUGUGAUUGU [1.8082e+07] : 52.7 nM
11. GGAGACCACACAGGAUAUGCUGGACUUUGUCCAGCAGAAGGGUGUUUAACAUGAGGAUCACCCAUGUAGGUCUCCAAAUUUAAU [Denovo 59] : 17.7 nM
12. GGCGACGGUGUAGGAUAUGUGGGUUUCAAAGGGAUAGAAGGAUAGUUGGGAAUUAGGACAAGCAAACAUGAGGAUCACCCAUGU [Same STate NG 1] : 34.8 nM
